Each item that follows carries a reported MCC.
- assay_overview: Cytotoxicity against HEL cells assessed as cell viability after 4 to 6 days by microscopic analysis
- Format: cell-based
- condition_summary: human

// worked examples, MCC included
compound_structure=CCCCCCNc1cnc(C(=O)NCc2ccccc2)cn1 endpoint_label=MCC value_measured="> 100 µM"
compound_structure=CCCCCNc1nccnc1C(=O)NCc1ccccc1 endpoint_label=MCC value_measured="≥ 100 µM"

Consider the record given below.
Prompt: Return MCC for the following molecule: `CCCCCCCCNc1cnc(C(=O)NCc2ccccc2)cn1`
Response: 100 µM

---

Each item that follows carries a reported CC50.
- assay_overview: Cytotoxicity against CRFK cells assessed as cell viability after 4 to 6 days by formazan-based MTS assay
- Design: species or system Felis catus
- condition_summary: cat

compound_structure=CCCCCCNc1cncc(C(=O)NCc2ccccc2)n1 value_measured="> 100 µM"
compound_structure=CCCCNc1nccnc1C(=O)NCc1ccccc1 value_measured="> 100 µM"

Consider the record given below.
Prompt: Return CC50 for the following compound: `CCCCNc1cnc(C(=O)NCc2ccccc2)cn1`
Response: > 100 µM

---

- assay_overview: Lipophilicity, logK of the compound by RP-HPLC analysis
- Assay type: physicochemical
Each item that follows carries a reported log K.
Answer using only a numeral; do not append any unit.

compound=CCCCCCNc1nccnc1C(=O)NCc1ccccc1 value_measured=1.564
compound=CCCCCCCNc1nccnc1C(=O)NCc1ccccc1 value_measured=1.809
compound=CCCCCNc1cncc(C(=O)NCc2ccccc2)n1 value_measured=0.768
compound=CCCCCCNc1cnc(C(=O)NCc2ccccc2)cn1 value_measured=0.859
compound="NC(=O)c1cnccn1 [PYRAZINAMIDE]" value_measured=-0.687
compound=CCCCNc1cnc(C(=O)NCc2ccccc2)cn1 value_measured=0.424

Prompt: Return log K for the following compound: `CCCCCNc1cnc(C(=O)NCc2ccccc2)cn1`
Response: 0.638

Prompt: Return log K for the following compound: `CCCCCCCNc1cncc(C(=O)NCc2ccccc2)n1`
Response: 1.207

---

- assay_overview: Cytotoxicity against MDCK cells assessed as cell viability after 4 to 6 days by formazan-based MTS assay
- Parameters: species or system Canis lupus familiaris
- condition_summary: dog
Each item that follows carries a reported CC50.

compound_structure=CCCCCCCCNc1nccnc1C(=O)NCc1ccccc1 endpoint_label=CC50 value_measured="> 100 µM"
compound_structure=CCCCCNc1cnc(C(=O)NCc2ccccc2)cn1 endpoint_label=CC50 value_measured="> 100 µM"
compound_structure=CCCCCCCNc1cncc(C(=O)NCc2ccccc2)n1 endpoint_label=CC50 value_measured="2.4 µM"
compound_structure=CCCCCCNc1cnc(C(=O)NCc2ccccc2)cn1 endpoint_label=CC50 value_measured="> 100 µM"

Consider the record given below.
Prompt: Return CC50 for the following compound: `CCCCCCCNc1nccnc1C(=O)NCc1ccccc1`
Response: > 100 µM

---

- assay_overview: Cytotoxicity against MDCK cells assessed as cell viability after 4 to 6 days by microscopic analysis
- Type: cell-based, Canis lupus familiaris
- condition_summary: dog
endpoint_label: MCC

// worked examples, MCC included
compound_structure=CCCCCNc1nccnc1C(=O)NCc1ccccc1 value_measured="≥ 20 µM"
compound_structure=CCCCNc1nccnc1C(=O)NCc1ccccc1 value_measured="> 100 µM"
compound_structure=CCCCCCNc1cnc(C(=O)NCc2ccccc2)cn1 value_measured="> 100 µM"
compound_structure=CCCCCCCCNc1cnc(C(=O)NCc2ccccc2)cn1 value_measured="≥ 20 µM"

Prompt: Return MCC for the following molecule: `CCCCCCNc1cncc(C(=O)NCc2ccccc2)n1`
Response: 20 µM

Prompt: Return MCC for the following molecule: `CCCCCNc1cnc(C(=O)NCc2ccccc2)cn1`
Response: > 100 µM

Prompt: Return MCC for the following molecule: `CCCCCCCCNc1nccnc1C(=O)NCc1ccccc1`
Response: 100 µM
